Just for reference, the supplement of paper PMC6757056 is where these values come from.

Known normalized RNA/DNA level without ligand (log10) of a selection of variants
B1: library; a variant is named by its letters at N, in order (parent)
chain: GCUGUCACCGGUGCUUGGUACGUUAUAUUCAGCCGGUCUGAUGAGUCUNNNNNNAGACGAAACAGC

- Variants of: B1
- MEASUREMENT PROTOCOL: normalized RNA/DNA level without ligand (relative to sTRSVctl = 100) (log10 (% of sTRSVctl)); HEK293T overexpressing SLC46A1; higher = less ribozyme self-cleavage, higher mRNA level
- STUDY CONDITIONS: without (6R,S)-folinic acid; ligand present: no
The reply should be a number, written without any unit.

- CHANGE: "CGAUAU"
  TEST RESULT: 1.95
- CHANGE: "CUACCG"
  TEST RESULT: 2.06
- CHANGE: "CGGCUG"
  TEST RESULT: 2.07
- CHANGE: "CGGCGA"
  TEST RESULT: 2.1
- CHANGE: "GCUGCC"
  TEST RESULT: 2.08

Task item: Can you look up the measured normalized RNA/DNA level without ligand (log10) of GGUCGC for me?
Reply: 1.95

Task item: Try the variant CGUAAG
Reply: 2.01

Task item: Another variant: CUUAUG
Reply: 2.01

Task item: Next variant: AAGAGC
Reply: 1.98

Task item: What about this variant? CAAUCU
Reply: 2.04

Task item: Try the variant GUCCCC
Reply: 2.02
